# testMethodNotes: pH measurement of 0.1 M aqueous solutions
# Type: physicochemical
# cond: 0.1 M in millipore water, r.t., average of at least three measurements
# maps each entry to its pH values compound
Please respond with just the number, no unit label.

Observe how each entry below is paired with its result.
INSERT INTO results (molecule, testvalue) VALUES
  ('NC(CC(=O)[O-])C(=O)[O-].O=C(O)CO.O=C(O)CO.[Ca+2] (centres unmarked) [CaAsp-HGly [2]]', 3.88),
  ('CC(=O)O.CC(=O)O.O=C1OC(C(O)CO)C([O-])=C1O.O=C1OC(C(O)CO)C([O-])=C1O.[Mg+2] (centres unmarked) [MgAsc-HAc [2]]', 4.34),
  ('CCC(=O)O.CCC(=O)O.O=C[O-].O=C[O-].[Mg+2] [MgFo-HProp [2]]', 4.84),
  ('CC(=O)O.CC(=O)O.O=C[O-].O=C[O-].[Ca+2] [CaFo-HAc [2]]', 4.74),
  ('CC(=O)O.CC(=O)O.O=C([O-])/C=C/C(=O)[O-].[Mg+2] [MgFum-HAc [2]]', 4.13);

Req: Given the entry CC(=O)[O-].CC(=O)[O-].CCC(=O)O.CCC(=O)O.[Ca+2] [CaAc-HProp [2]] , report its measured pH values compound.
Resp: 5.16

Req: Same read-out for CC(O)C(=O)O.CC(O)C(=O)O.CC(O)C(=O)[O-].CC(O)C(=O)[O-].[Mg+2] (centres unmarked) [MgLac-HLac [2]] ?
Resp: 3.31

Req: Same read-out for CC(=O)O.CC(O)C(=O)O.CCC(=O)O.O=C([O-])C(O)C(O)C(=O)[O-].[Ca+2] (centres unmarked) [CaT-HAc-HPro-HLac [1,1,1]] ?
Resp: 3.33

----------
# testMethodNotes: pH measurement of 0.1 M aqueous solutions
# Format: physicochemical
# cond: 0.1 M in millipore water, r.t., average of at least three measurements
Please note: label 1 applies when pH values compound is 4 or greater, and label 0 applies otherwise.

Observe how each entry below is paired with its result.
INSERT INTO measurements (molecule, assignedclass) VALUES
  ('CC(O)C(=O)O.CC(O)C(=O)O.O=C([O-])/C=C/C(=O)[O-].[Ca+2] [CaFum-HLac [2]]', 'label 0'),
  ('O=CO.O=CO.O=C[O-].O=C[O-].[Mg+2] [MgFo-HFo [2]]', 'label 1'),
  ('CC(=O)O.CC(O)C(=O)[O-].CC(O)C(=O)[O-].CCC(=O)O.[Mg+2] (stereo not shown) [MgLac-HAc-HProp [1,1]]', 'label 1'),
  ('CC(=O)O.CC(=O)O.CC(O)C(=O)[O-].CC(O)C(=O)[O-].[Mg+2] (stereo not shown) [MgLac-HAc [2]]', 'label 1');

Req: Tell me whether pH values compound is at least 4 here: CCC(=O)O.CCC(=O)O.O=C([O-])CO.O=C([O-])CO.[Ca+2] [CaGly-HProp [2]]
Resp: label 1

Req: Same read-out for CC(O)C(=O)O.CC(O)C(=O)O.CC(O)C(=O)O.CC(O)C(=O)[O-].CC(O)C(=O)[O-].[Ca+2] (stereo not shown) [CaLac-HLac [3]] ?
Resp: label 0

Req: Same read-out for CC(=O)O.CC(=O)O.CC(=O)O.CC(=O)O.CC(=O)O.O=C([O-])C(O)C(O)C(=O)[O-].[Ca+2] (stereo not shown) [CaT-HAc [5]] ?
Resp: label 0

Req: Same read-out for CC(=O)O.CC(=O)O.NC(CC(=O)[O-])C(=O)[O-].[Ca+2] (stereo not shown) [CaAsp-HAc [2]] ?
Resp: label 1

Req: Same read-out for O=C([O-])/C=C/C(=O)[O-].O=CO.O=CO.[Mg+2] [MgFum-HFo [2]] ?
Resp: label 0

----------
# maps each entry to its pH values compound
# testMethodNotes: pH measurement of 0.1 M aqueous solutions
# Type: physicochemical
# cond: 0.1 M in millipore water, r.t., average of at least three measurements
Please respond with just the number, no unit label.

Observe how each entry below is paired with its result.
INSERT INTO results (compound, property, testvalue) VALUES
  ('CC(O)C(=O)O.CC(O)C(=O)O.CC(O)C(=O)O.CC(O)C(=O)O.NC(CCC(=O)[O-])C(=O)[O-].[Ca+2] (stereo not shown) [CaGlu-HLac [4]]', 'pH values compound', 3.60),
  ('CC(=O)O.CC(=O)O.O=C([O-])c1ccccc1.O=C([O-])c1ccccc1.[Ca+2] [CaBen-HAc [2]]', 'pH values compound', 4.46),
  ('CCC(=O)O.CCC(=O)O.O=C[O-].O=C[O-].[Ca+2] [CaFo-HProp [2]]', 'pH values compound', 5.79);

Attention now turns to another entry.
Req: Given the entry CCC(=O)O.CCC(=O)O.O=C([O-])CCC(=O)[O-].[Mg+2] [MgSuc-HProp [2]] , report its measured pH values compound.
Resp: 5.18

----------
# maps each entry to its pH values compound
# testMethodNotes: pH measurement of 0.1 M aqueous solutions
# Assay type: physicochemical
# cond: 0.1 M in millipore water, r.t., average of at least three measurements

Observe how each entry below is paired with its result.
INSERT INTO measurements (compound, property, testvalue) VALUES
  ('CC(O)C(=O)O.CC(O)C(=O)O.CC(O)C(=O)O.CC(O)C(=O)O.CC(O)C(=O)[O-].CC(O)C(=O)[O-].[Ca+2] (stereo not drawn) [CaLac-HLac [4]]', 'pH values compound', 3.30),
  ('CC(=O)O.CC(=O)O.CC(=O)O.CC(=O)O.CC(=O)O.CC(=O)O.O=C1OC(C(O)CO)C([O-])=C1O.O=C1OC(C(O)CO)C([O-])=C1O.[Ca+2] (stereo not drawn) [CaAsc-HAc [6]]', 'pH values compound', 4.12),
  ('CC(=O)O.CC(=O)O.O=C([O-])/C=C/C(=O)[O-].[Ca+2] [CaFum-HAc [2]]', 'pH values compound', 4.17),
  ('CC(=O)O.CC(=O)O.CC(=O)O.CC(=O)O.O=C1OC(C(O)CO)C([O-])=C1O.O=C1OC(C(O)CO)C([O-])=C1O.[Ca+2] (stereo not drawn) [CaAsc-HAc [4]]', 'pH values compound', 4.22);

Req: Given the entry CC(O)C(=O)O.CC(O)C(=O)O.O=C[O-].O=C[O-].[Mg+2] (stereo not drawn) [MgFo-HLac [2]] , report its measured pH values compound.
Resp: 3.72

Req: Same read-out for CC(O)C(=O)O.CC(O)C(=O)O.O=C([O-])c1ccccc1O.O=C([O-])c1ccccc1O.[Ca+2] [CaSal-HLac [2]] ?
Resp: 3.43

Req: Same read-out for CCC(=O)O.CCC(=O)O.O=C([O-])CCC(=O)[O-].[Ca+2] [CaSuc-HProp [2]] ?
Resp: 5.01

Req: Same read-out for CCC(=O)O.CCC(=O)O.O=C([O-])/C=C/C(=O)[O-].[Ca+2] [CaFum-HProp [2]] ?
Resp: 4.27

Req: Same read-out for CC(=O)[O-].CC(=O)[O-].CCC(=O)O.CCC(=O)O.[Mg+2] [MgAc-HProp [2]] ?
Resp: 5.51

Req: Same read-out for CCC(=O)O.CCC(=O)O.O=C([O-])/C=C/C(=O)[O-].[Mg+2] [MgFum-HProp [2]] ?
Resp: 4.24

Req: Same read-out for CC(=O)O.CC(=O)O.NC(CCC(=O)[O-])C(=O)[O-].[Ca+2] (stereo not drawn) [CaGlu-HAc [2]] ?
Resp: 4.52

Req: Same read-out for CCC(=O)O.CCC(=O)O.O=C([O-])c1ccccc1.O=C([O-])c1ccccc1.[Ca+2] [CaBen-HProp [2]] ?
Resp: 4.64

----------
# testMethodNotes: pH measurement of 0.1 M aqueous solutions
# Format: physicochemical
# cond: 0.1 M, r.t.; compound made via in-situ process
property: pH value
Please respond with just the number, no unit label.

INSERT INTO assay_data (compound, testvalue) VALUES
  ('CC(=O)O.CC(=O)O.CC(=O)O.CC(=O)O.O=C([O-])C(O)C(O)C(=O)[O-].[Ca+2] (stereo not shown) [CaT-HAc [4], calcium tartrate with loaded acetic acid]', 3.33),
  ('CC(=O)O.CCC(=O)O.O=C([O-])C(O)C(O)C(=O)[O-].[Ca+2] (stereo not shown) [CaT-HAc-HProp [1,1]]', 3.63),
  ('CC(O)C(=O)O.CC(O)C(=O)O.O=C([O-])C(O)C(O)C(=O)[O-].[Ca+2] (stereo not shown) [CaT-HLac [2], calcium tartrate with loaded lactic acid]', 3.27);

Attention now turns to another entry.
Req: Given the entry CC(=O)O.CC(=O)O.O=C[O-].O=C[O-].[Mg+2] [MgFo-HAc [2]] , report its measured pH value.
Resp: 5.10
